Target: IRAK4 (Homo sapiens)
Construct: host or cells: human PBMCs
Assay: IRAK4 Human PBMC TNFα Cell Based Assay (AlphaLISA)
Details: human PBMCs stimulated by IL-1β (10 ng/ml), 24 h, TNFα in culture medium; read-out: IRAK4 PBMC AlphaLISA IL-1β (IC50)
Property: pIC50; scope: individual compounds
Recall that pIC50 is obtained by taking minus log10 of the concentration measured in molar.

The cases that follow already have their pIC50 on record.
c1ccc(-c2n[nH]c3nc(Nc4cnn(C5CCOCC5)c4)nc(N[C@H]4CC[C@H](N5CCOCC5)CC4)c23)cc1; 7.25
Brc1n[nH]c2nc(Nc3cnn(C4CCOCC4)c3)nc(N[C@H]3CC[C@H](N4CCOCC4)CC3)c12; 7.80
Cc1cc(Nc2nc(N[C@H]3CC[C@H](N4CCOCC4)CC3)c3cn[nH]c3n2)sn1; 9.05

We now examine a further compound.
Q: Please look at c1cncc(-c2n[nH]c3nc(Nc4cnn(C5CCOCC5)c4)nc(N[C@H]4CC[C@H](N5CCOCC5)CC4)c23)c1 and tell me its recorded pIC50 on IRAK4 (Homo sapiens).
Ans: 7.60

====

Property: IRAK4 Biochemical Assay Max Inhibition (%); scope: individual compounds
Molecular target: full length human IRAK4 protein (Homo sapiens, UniProt Q9NWZ3)
Construct: Purified full length human IRAK4 protein; purchased Signal Chem 112-10G-125
Sequence (Q9NWZ3 1-460): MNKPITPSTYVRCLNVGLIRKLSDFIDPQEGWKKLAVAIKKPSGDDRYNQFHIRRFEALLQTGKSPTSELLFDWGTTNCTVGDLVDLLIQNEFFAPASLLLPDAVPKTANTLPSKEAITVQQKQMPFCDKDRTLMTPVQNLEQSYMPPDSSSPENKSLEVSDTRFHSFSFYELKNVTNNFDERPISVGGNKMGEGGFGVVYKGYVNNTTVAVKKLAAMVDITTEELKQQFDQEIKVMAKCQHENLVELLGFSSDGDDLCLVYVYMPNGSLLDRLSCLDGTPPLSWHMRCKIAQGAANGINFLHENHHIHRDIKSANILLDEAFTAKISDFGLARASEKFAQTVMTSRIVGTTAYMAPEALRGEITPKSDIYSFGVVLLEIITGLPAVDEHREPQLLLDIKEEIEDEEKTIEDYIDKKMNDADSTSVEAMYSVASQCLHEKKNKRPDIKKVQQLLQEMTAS
Experiment: IRAK4 Biochemical Assay (Promega ADP-Glo IRAK4 Kinase Enzyme System)
Conditions: 3 nM enzyme, 2 μM MBP, 250 μM ATP, 60 min at room temperature, ADP-Glo luminescence
Protocol: For the routine compound screening, an IRAK4 kinase assay was performed as follows using Promega ADP-Glo IRAK4 Kinase Enzyme System (Promega, Cat #2198-AD). […] Finally, luminescence was read using Tecan with 1000 ms of integration time. […] Data was analyzed by GraphPad Prism and IC50 was calculated using function log(inhibitor) vs. response—Variable slope (four parameters). Percentage of inhibition was calculated as below. […]
Answer with a number only, understood to be in %.

Brc1n[nH]c2nc(Nc3cnn(C4CCOCC4)c3)nc(N[C@H]3CC[C@H](N4CCOCC4)CC3)c12 [Example 1]; 100
c1cncc(-c2n[nH]c3nc(Nc4cnn(C5CCOCC5)c4)nc(N[C@H]4CC[C@H](N5CCOCC5)CC4)c23)c1 [Example 2]; 100
Cc1cc(Nc2nc(N[C@H]3CC[C@H](N4CCOCC4)CC3)c3cn[nH]c3n2)sn1 [Example 6]; 100
c1ccc(-c2n[nH]c3nc(Nc4cnn(C5CCOCC5)c4)nc(N[C@H]4CC[C@H](N5CCOCC5)CC4)c23)cc1 [Example 5]; 100

Q: Please look at c1nn(C2CCOCC2)cc1Nc1nc(N[C@H]2CC[C@H](N3CCOCC3)CC2)c2c(-c3cn[nH]c3)n[nH]c2n1 [Example 3] and tell me its recorded IRAK4 Biochemical Assay Max Inhibition (%) on full length human IRAK4 protein (Homo sapiens, UniProt Q9NWZ3).
Ans: 109

Reference source: patent US20220144842A1
